Experiment: binders of probe aFSTL3 on microarray, primary screen, stem cell growth factor project, biochemical, small-molecule microarray, fluorescence 635/667 (AID 1064);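 note: measures binding of the biotinylated anti-FSTL3 antibody to printed compounds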
Details: higher = more signal
measured.parameter: composite z-score
Give bare numbers.

INSERT INTO assay_data (compound, measured_parameter, observed_value) VALUES
  ('CN1C(=O)C2C=CC(C(O)c3ccccn3)N(Nc3ccccc3)C2C1=O (stereo not given)', 'composite z-score', -0.0437),
  ('O=C1OCCC=C[C@H]2OC34C=CCN(Cc5ccccc5)C(=O)[C@H]3N(CCCCCO)C(=O)[C@@H]4C12 (stereo not given in full)', 'composite z-score', -0.557),
  ('O=C1O[C@@H](c2ccccc2)[C@@H](c2ccccc2)N2[C@@H](c3ccccc3OCCO)[C@]3(C(=O)Nc4ccc(C#CC5(O)CCCCCC5)cc43)[C@@H](C(=O)Nc3nc4ccccc4s3)[C@H]12', 'composite z-score', -0.508),
  ('C=C(COC)C(=O)CC[C@@H](OC(=O)c1cccnc1)c1ccc(CO)o1', 'composite z-score', -0.376),
  ('O=C1C2C=CC(C(O)c3ccc(-c4ccccc4)s3)N(n3cnnc3)C2C(=O)N1Cc1ccccc1 (stereo not given)', 'composite z-score', 0.0626),
  ('O=C1N(CCS(=O)(=O)c2ccccc2)Cc2ccccc2[C@H]2OC(c3ccc(OCCCO)cc3)=N[C@@]12CCS(=O)(=O)c1ccccc1', 'composite z-score', 1.11),
  ('CCCCC=C[C@@H](NC(=O)c1ccc(C(=O)OC)cc1)c1ccccc1', 'composite z-score', 0.026),
  ('COCCOC(=O)N1C(=O)[C@@]2(c3cc(C#CCC(C(=O)OC)C(=O)OC)ccc31)[C@H](C(=O)N1CCN(c3ncccn3)CC1)[C@H]1C(=O)O[C@H](c3ccccc3)[C@H](c3ccccc3)N1[C@@H]2c1ccc(OCCO)cc1', 'composite z-score', -0.462),
  ('O=C(CS)NCCCCCCNC(=O)[C@@H]1C[C@@H]2C(=O)N3CCC[C@H]3C(=O)N2[C@@H]1c1ccc(O)cc1', 'composite z-score', 0.525),
  ('C=CCC(OC(C)=O)[C@@H]1[C@@H](N(Cc2cccc3ccccc23)C(=O)c2ccc(C)cc2)c2cc(OCCCO)ccc2N1C(=O)Cc1ccc(OC)cc1 (stereo not given in full)', 'composite z-score', -0.186);

Would you mind listing composite z-score for each of the following compounds?
1. COCC(=C=CC[C@@H](O)c1ccc(CO)o1)CCO
2. CS(=O)(=O)CCOC(=O)C1=CC(c2ccc(CO)cc2)=CC(C2CC2)N(Cc2cc3c(cc2Br)OCO3)C=C1C(=O)OCCS(C)(=O)=O (stereo not given)
3. CC(C)(C)OC(=O)CC[C@@]1(C(=O)O)N=C(c2ccc(OCCCO)cc2)O[C@@H]1c1ccccc1N=[N+]=[N-]
4. O=C(OCCF)C1=CCC(c2cccc(Cl)c2)O1 (stereo not given)
5. C=CCNC(=O)[C@H]1[C@@H]2C(=O)O[C@@H](c3ccccc3)[C@@H](c3ccccc3)N2[C@@H](c2ccc(O)cc2)[C@]12C(=O)N(C(=O)OCCOC)c1ccc(C#CCCO)cc12

**A:**
1: -0.403; 2: -0.232; 3: 1.09; 4: -0.422; 5: 0.174

====

Please respond with reported z-score for every item in the list.
Experiment: CREB reporter modulators under forskolin, primary screen, cell-based, PC12, CRE-LacZ reporter, forskolin-stimulated (AID 1146);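 note: PC12 cells with 6xCRE LacZ reporter stimulated by forskolin 10 µM; beta-galactosidase reporter signal reflecting CREB driven transcription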
Details: luminescence, 4.5 h, higher = more signal, called active from +8 up or from −8 down
Numbers only.

INSERT INTO measurements (compound, measured_parameter, observed_value) VALUES
  ('COCCOC(=O)N1C(=O)[C@@]2(c3cc(C#CCC(C(=O)OC)C(=O)OC)ccc31)[C@H](C(=O)N1CCCCCCC1)[C@H]1C(=O)O[C@H](c3ccccc3)[C@H](c3ccccc3)N1[C@@H]2c1ccc(OCCO)cc1', 'z-score', -0.0519),
  ('CC(C)C(=C=CC[C@H](O)c1cccc(OCCO)c1)C[C@H](O)COCc1ccccc1', 'z-score', 0.526),
  ('COc1ccc(CCNC(=O)[C@@H]2c3ccccc3C(=O)N(Cc3ccc(OC(F)(F)F)cc3)[C@H]2c2ccc(CO)cc2)cc1', 'z-score', -0.206),
  ('CN(C)C(=O)[C@]1(CCC(=O)OC(C)(C)C)N=C(c2ccc(OCCCO)cc2)O[C@@H]1c1ccccc1N=[N+]=[N-]', 'z-score', 0.0155),
  ('CC(c1ccccc1)C(O)C1C=CC2C(=O)NC(=O)C2N1Nc1ccccn1 (configuration not stated)', 'z-score', -1.03),
  ('CC(=O)C1=CCC(c2ccccc2)N(S(=O)(=O)c2ccc(C)cc2)C1 (configuration not stated)', 'z-score', 0.151);

Kindly consider the entry below.
**Q:** Entry COC(=O)c1c(CC[C@@H](CO)NC(=O)N[C@@H](Cc2ccccc2)Cn2cc(C3(O)CCCCC3)nn2)oc(C(C)=O)c1C(=O)OC : reported z-score = ?
**A:** -1.36

Numbers sourced from PubChem BioAssay.
